Test: NCI Yeast Anticancer Drug Screen. Data for the bub3 strain (AID 167)
Conditions: S. cerevisiae bub3 mutant strain, at 5.0 µM (retest, dose inferred, filed as 0.5), hits give high values
This is part of a sample that, as a whole, favours compounds with a hit. Of some 79,000 tested, about 15% had one in any assay.
Measured growth inhibition by item
Quantity Measured: growth inhibition (%)

>>> measured_value("Fc1ccc(NC(=S)SCc2ccccc2)cc1")
-4
>>> measured_value("Cc1cc(Br)cc(C)c1NC(=O)C(=O)C(C(=O)c1ccc2ccccc2c1)C1OC(=O)c2ccccc21 (stereo not given)")
5
>>> measured_value("Cc1nc(N)nc(-c2ccccc2)c1N=Nc1ccc(Cl)cc1")
-1
>>> measured_value("Cc1ccc(Nc2nc3nc[nH]c3c(=O)[nH]2)cc1CO")
2
>>> measured_value("CC(C)(C)N1C(=O)C(Cl)(C#N)C1c1ccccc1 (stereo not given)")
-1
>>> measured_value("O=C1C=C(OCC=C(C(F)(F)F)C(F)(F)F)C(=O)c2ccccc21")
1
>>> measured_value("COc1cccc(C2Nc3ccccc3C(=O)N2N2CCOCC2)c1 (stereo not given)")
-2
>>> measured_value("CCCCCCCCCC(C)CC(=O)NCCCN(C)CCCCN(C)C (stereo not given) (tested in a mixture with another compound)")
-17
>>> measured_value("O=[N+]([O-])/C=C/c1cc2ccccc2[nH]1")
-8
>>> measured_value("CC(=O)OC(C)(C)N=Nc1ccc(Br)cc1")
78
>>> measured_value("CCCCCCCCCCN(CCCCCCCCCC)CC(O)c1cc(-c2ccccc2)nc2ccccc12 (stereo not given)")
0
>>> measured_value("c1ccc(NNc2ccc3ccccc3n2)cc1")
24
>>> measured_value("CCc1cc(CC)c(-c2ccco2)c(COC(=O)NC)c1")
-8
>>> measured_value("CCCCN(CCCC)S(=O)(=O)c1ccccc1")
3
>>> measured_value("CCCCCCCCCCCC(N)c1ccccc1 (stereo not given)")
99
>>> measured_value("CCCCCCCCCCCCCCCCCC1=NCCN1")
8
>>> measured_value("Cc1nc2c(Cl)nc(Cl)nc2s1")
15
>>> measured_value("COC(=O)C1(C)CCc2c(ccc3cccc(OC)c23)C1=O (stereo not given)")
20
>>> measured_value("CC12CCC3C(CCC4CC(O)CCC43C)C1CC1C2=NOC1O (stereo not given)")
-3
>>> measured_value("C/C=C/c1cc2c(cc1O)CC[C@@H]1[C@@H]2CC[C@]2(C)[C@@H](O)CC[C@@H]12")
22
>>> measured_value("CCC1CCC(CC)C1O (stereo not given)")
1
>>> measured_value("COc1ccc(C2c3cc4c(cc3OC(O)C2C)OCO4)c(OC)c1 (stereo not given)")
-4
>>> measured_value("O=C1C=CC(=O)c2nc3c(nc21)[nH]c1ccccc13")
-41
>>> measured_value("CC1(C)CCN(CCOC(=O)C(c2ccccc2)C2C=CCCC2)C1 (stereo not given)")
4
>>> measured_value("OCCN=C1c2ccccc2C2C(c3ccccc31)C1c3ccccc3C(=NCCO)c3ccccc3C21 (stereo not given)")
-6
